Procedure summary: Inhibition of Mycobacterium tuberculosis DprE1

Compound	Cmp	pIC50
CNC(=O)C(C)Nc1ccc2c(c1)OCCO2 (stereo unspecified)	=	4.5
CC(Nc1ccc2c(c1)NCCO2)C(=O)Nc1ccc(Br)cc1 (stereo unspecified)	=	5.6
CC(Nc1ccc2c(c1)OCO2)C(=O)Nc1ccc(Br)cc1 (stereo unspecified)	=	6
C[C@H](Nc1ccc2c(c1)OCCO2)C(=O)Nc1ccc(Br)cc1	=	6
CC(Nc1ccc(Br)cc1)C(=O)Nc1ccc2c(c1)OCCO2 (stereo unspecified)	=	4.2
O=C1C(Cc2ccc3c(c2)OCCO3)CCCN1c1ccc(Br)cc1 (stereo unspecified)	=	4.2
CC(Nc1ccc2c(c1)CCCC2)C(=O)Nc1ccc(Br)cc1 (stereo unspecified)	=	6.2
CC(C)(Nc1ccc2c(c1)OCCO2)C(=O)Nc1ccc(Br)cc1	=	6.9
CC(Nc1ccc2c(c1)OCCO2)C(=O)Nc1ccc(-c2cnco2)cc1 (stereo unspecified)	<	4
CC(Nc1ccc2c(c1)OCCO2)C(=O)Nc1ccccc1 (stereo unspecified)	=	4.2
CC(Nc1ccc2c(c1)OCCO2)C(=O)Nc1ccc(Br)nc1 (stereo unspecified)	=	5.8
